Procedure details: Cytotoxicity against human HepG2 cells
Type: cell-based
Condition label: read-out: TC50 (the source's name)
Recorded CC50, one value per entry.

Here's what some known entries look like.
                                  structure  data_value
0  CN(C)CC#Cc1cc2c(Nc3ccc(OCc4cccc(F)c4)c(Cl)c3)ncnc2s1     > 32 µM
1  Fc1cccc(COc2ccc(Nc3ncnc4cc(C#CC5CCCC5)sc34)cc2Cl)c1     > 31 µM
2  Fc1cccc(COc2ccc(Nc3ncnc4cc(C#CCN5CCCC5)sc34)cc2Cl)c1      4.9 µM
3  Fc1cccc(COc2ccc(Nc3ncnc4sc(C#CCN5CCOCC5)cc34)cc2Cl)c1     > 29 µM
4  CN(C)CC#Cc1cc2ncnc(Nc3ccc(OCc4cccc(F)c4)c(Cl)c3)c2s1     > 32 µM

Need CC50, item CC(C)(C)OC(=O)N1CCN(CC#Cc2cc3ncnc(Nc4ccc(OCc5cccc(F)c5)c(Cl)c4)c3s2)CC1 > 24 µM

Need CC50, item Fc1cccc(COc2ccc(Nc3ncnc4cc(C#Cc5ccc(C(F)(F)F)nc5)sc34)cc2Cl)c1 > 5 µM

Need CC50, item Fc1cccc(COc2ccc(Nc3ncnc4ccc(C#CCN5CCOCC5)cc34)cc2Cl)c1 > 30 µM

Need CC50, item Fc1cccc(COc2ccc(Nc3ncnc4cc(C#CCN5CCOCC5)sc34)cc2Cl)c1 > 29 µM

Need CC50, item CN1CCN(CC#Cc2ccc3ncnc(Nc4ccc(OCc5cccc(F)c5)c(Cl)c4)c3c2)CC1 8.2 µM

Need CC50, item Fc1cccc(COc2ccc(Nc3ncnc4ccc(C#CC5CCCC5)cc34)cc2Cl)c1 > 3 µM

Need CC50, item Fc1cccc(COc2ccc(Nc3ncnc4ccc(C#CCN5CCSCC5)cc34)cc2Cl)c1 > 29 µM

Need CC50, item Fc1cccc(COc2ccc(Nc3ncnc4cc(C#CCN5CCNCC5)sc34)cc2Cl)c1 > 29 µM

Need CC50, item Fc1cccc(COc2ccc(Nc3ncnc4sc(C#CCN5CCNCC5)cc34)cc2Cl)c1 7.7 µM

###

System: Plasmodium falciparum
Procedure details: Antimalarial activity against Plasmodium falciparum D6 trophozoites after 72 hrs by SYBR Green I dye-based fluorescence assay
Format: functional, organism-based
Condition label: D6, 72 h
Measurement kind: pEC50
Please treat pEC50 as minus the base-10 logarithm of the molar concentration.

Here's what some known entries look like.
>>> df
                                  structure  data_value
0  CC(C)(C)CC#Cc1cc2c(Nc3ccc(OCc4cccc(F)c4)c(Cl)c3)ncnc2s1        5.24
1  Fc1cccc(COc2ccc(Nc3ncnc4cc(C#Cc5ccccn5)sc34)cc2Cl)c1        5.70
2  CN1CCN(CC#Cc2ccc3ncnc(Nc4ccc(OCc5cccc(F)c5)c(Cl)c4)c3c2)CC1        6.80
3  Fc1cccc(COc2ccc(Nc3ncnc4sc(C#CCN5CCCC5)cc34)cc2Cl)c1        6.85
4  Fc1cccc(COc2ccc(Nc3ncnc4sc(C#CCN5CCOCC5)cc34)cc2Cl)c1        5.52
5  COCC#Cc1cc2ncnc(Nc3ccc(OCc4cccc(F)c4)c(Cl)c3)c2s1        5.23

Under Plasmodium falciparum: pEC50 value of CN(CC#Cc1cc2c(Nc3ccc(OCc4cccc(F)c4)c(Cl)c3)ncnc2s1)Cc1ccccc1 ? 5.32

Under Plasmodium falciparum: pEC50 value of CCCN(CC#Cc1cc2c(Nc3ccc(OCc4cccc(F)c4)c(Cl)c3)ncnc2s1)CCC ? 6.10
